- TEST SYSTEM: PRMT5-MEP50 enzyme complex (Homo sapiens (Human), UniProt O14744)
- Sequence (O14744 2-637): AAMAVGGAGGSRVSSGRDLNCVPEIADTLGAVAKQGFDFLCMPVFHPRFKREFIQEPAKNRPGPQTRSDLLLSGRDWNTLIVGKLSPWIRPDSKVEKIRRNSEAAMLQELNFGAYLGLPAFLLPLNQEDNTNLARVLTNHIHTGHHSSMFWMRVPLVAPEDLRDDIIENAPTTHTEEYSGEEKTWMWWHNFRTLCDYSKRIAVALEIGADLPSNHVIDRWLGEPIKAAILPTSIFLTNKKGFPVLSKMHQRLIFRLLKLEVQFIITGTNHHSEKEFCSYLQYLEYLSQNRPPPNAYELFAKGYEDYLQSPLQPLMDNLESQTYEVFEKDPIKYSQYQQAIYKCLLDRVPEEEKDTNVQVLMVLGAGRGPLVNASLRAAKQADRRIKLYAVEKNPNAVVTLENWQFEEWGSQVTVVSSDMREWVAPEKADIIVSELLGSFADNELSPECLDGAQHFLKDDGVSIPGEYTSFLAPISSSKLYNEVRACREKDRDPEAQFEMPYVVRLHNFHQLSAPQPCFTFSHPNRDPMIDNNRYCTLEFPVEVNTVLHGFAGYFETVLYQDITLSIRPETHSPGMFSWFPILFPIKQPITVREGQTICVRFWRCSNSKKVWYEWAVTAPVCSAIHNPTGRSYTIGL
- Sequence (Q9BQA1 2-342 partner): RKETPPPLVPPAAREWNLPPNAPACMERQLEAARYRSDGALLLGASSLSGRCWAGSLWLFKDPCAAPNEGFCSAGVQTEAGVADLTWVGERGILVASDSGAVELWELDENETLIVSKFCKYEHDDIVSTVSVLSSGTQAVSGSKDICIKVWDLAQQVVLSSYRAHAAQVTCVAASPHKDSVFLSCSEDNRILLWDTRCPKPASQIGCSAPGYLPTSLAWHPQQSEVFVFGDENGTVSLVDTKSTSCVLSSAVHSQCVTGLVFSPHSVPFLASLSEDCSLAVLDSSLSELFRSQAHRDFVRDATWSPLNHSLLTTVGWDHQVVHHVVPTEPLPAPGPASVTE
- METHOD: PRMT5 enzyme activity in vitro assay (methylation of histone H4R3, ELISA absorbance at 450 nm)
- TEST PARAMETERS: SAM, histone H4 peptide, room temperature 2 hours, 8 points from 10 μM to 0.128 nM
PARAMETER MEASURED: IC50

>>> test_value("CN1CCN(C[C@H](O)CN2CCc3ccccc3C2)C(=O)c2ccc(OCc3ccc(F)cn3)cc21")
"0.1 to 1 µM"
>>> test_value("O=C1c2ccc(CN3CCC(F)CC3)cc2OCCN1C[C@H](O)CN1CCc2ccccc2C1")
"0.001 to 0.1 µM"
>>> test_value("CN1CCN(C[C@H](O)CN2CCc3ccccc3C2)C(=O)c2ccc(C3=CCCCC3)cc21")
"0.001 to 0.1 µM"
>>> test_value("O=C1c2ccc(CN3CCCOCC3)cc2OCCN1C[C@H](O)CN1CCc2ccccc2C1")
"0.1 to 1 µM"
>>> test_value("O=C1c2ccc(OCc3ccnc(F)c3)cc2OCCN1C[C@H](O)CN1CCc2ccccc2C1")
"0.001 to 0.1 µM"
>>> test_value("CC(=O)N1CCC(COc2ccc3c(c2)OCCN(C[C@H](O)CN2CCc4ccccc4C2)C3=O)CC1")
"0.1 to 1 µM"
>>> test_value("O=C1c2ccc(-c3ccncc3)cc2OCCN1C[C@H](O)CN1CCc2ccccc2C1")
"0.1 to 1 µM"

As a next step, examine the compound that follows.
Quick one: IC50 for "C[C@@H]1CN(C[C@H](O)CN2CCc3ccccc3C2)C(=O)c2ccc(O[C@@H]3CCN(C)C3)cc2O1" ?
0.1 to 1 µM

----------
- TEST SYSTEM: PRMT5-MEP50 enzyme complex (Homo sapiens (Human), UniProt O14744)
- METHOD: PRMT5 enzyme activity in vitro assay (methylation of histone H4R3, ELISA absorbance at 450 nm)
- TEST PARAMETERS: SAM, histone H4 peptide, room temperature 2 hours, 8 points from 10 μM to 0.128 nM
PARAMETER MEASURED: IC50

>>> test_value("CCOCCN1CCC(Oc2ccc3c(c2)O[C@H](C)CN(C[C@H](O)CN2CCc4ccccc4C2)C3=O)CC1")
"100 to 1000 nM"
>>> test_value("CC1(C)CN(C[C@H](O)CN2CCc3ccccc3C2)C(=O)c2ccc(OC3CCN(CCO)CC3)nc2O1")
"1 to 100 nM"
>>> test_value("CC(=O)N1CC[C@@H](Oc2ccc3c(c2)OCCN(C[C@H](O)CN2CCc4ccccc4C2)C3=O)C1")
"1 to 100 nM"
>>> test_value("CN1CC(Oc2ccc3c(c2)OCCN(C[C@H](O)CN2CCc4ccccc4C2)C3=O)C1")
"100 to 1000 nM"
>>> test_value("O=C1c2ccc(OCc3ccc(F)cn3)cc2OCCN1C[C@H](O)CN1CCc2ccccc2C1")
"1 to 100 nM"

Quick one: IC50 for "O=C1c2ccc(CN3CCC4(CC3)COC4)cc2OCCN1C[C@H](O)CN1CCc2ccccc2C1" ?
100 to 1000 nM

Quick one: IC50 for CCN1CCC(Oc2ccc3c(c2)N(C)CCN(C[C@H](O)CN2CCc4ccccc4C2)C3=O)C(F)C1 (some centres unmarked) ?
100 to 1000 nM

Quick one: IC50 for "O=C1c2ccc(C#Cc3ccncc3)cc2OCCN1C[C@H](O)CN1CCc2ccccc2C1" ?
1 to 100 nM

----------
- TEST SYSTEM: PRMT5-MEP50 enzyme complex (Homo sapiens (Human))
- METHOD: PRMT5 enzyme activity in vitro assay (methylation of histone H4R3, ELISA absorbance at 450 nm)
- TEST PARAMETERS: SAM, histone H4 peptide, room temperature 2 hours, 8 points from 10 μM to 0.128 nM
We begin with a simple list: items and their reported IC50.

>>> test_value("O=C(c1ccc2c(c1)OCCN(C[C@H](O)CN1CCc3ccccc3C1)C2=O)C1CCCC1")
"100 to 1000 nM"
>>> test_value("O=C1c2ccccc2CCCN1CC(O)CN1CCc2ccccc2C1 (stereo not shown)")
"1000 to 10000 nM"
>>> test_value("CC(=O)N1CC[C@@H](Oc2ccc3c(c2)N(C)CCN(C[C@H](O)CN2CCc4ccccc4C2)C3=O)C1")
"100 to 1000 nM"
>>> test_value("O=C1c2ccc(OCCN3CCOCC3)cc2OCCN1C[C@H](O)CN1CCc2ccccc2C1")
"100 to 1000 nM"
>>> test_value("CC(O)CN1CCC(Oc2ccc3c(c2)O[C@H](C)CN(C[C@H](O)CN2CCc4ccccc4C2)C3=O)CC1 (stereo partly shown)")
"100 to 1000 nM"
>>> test_value("CC(C)(O)CN1CCC(Oc2ccc3c(c2)OCCN(C[C@H](O)CN2CCc4ccccc4C2)C3=O)CC1")
"100 to 1000 nM"
>>> test_value("O=C1c2ccc(CN3CCC(O)CC3)cc2OCCN1C[C@H](O)CN1CCc2ccccc2C1")
"1 to 100 nM"
>>> test_value("C[C@@H]1CN(C[C@H](O)CN2CCc3ccccc3C2)C(=O)c2ccc(OC3CCN(C)CC3)cc2O1")
"100 to 1000 nM"
>>> test_value("CCN1CC2(CC(Oc3ccc4c(c3)OCCN(C[C@H](O)CN3CCc5ccccc5C3)C4=O)C2)C1")
"100 to 1000 nM"
>>> test_value("O=C1c2ccc(OC3CN(C(=O)C(F)F)C3)cc2OCCN1C[C@H](O)CN1CCc2ccccc2C1")
"1 to 100 nM"

Quick one: IC50 for CC(c1ccc2c(n1)OC(C)(C)CN(C[C@H](O)CN1CCc3ccccc3C1)C2=O)N1CCOCC1 (stereo partly shown) ?
100 to 1000 nM

Quick one: IC50 for "O=C1c2ccc(OC3CCN(C4CCC4)CC3)cc2OCCN1C[C@H](O)CN1CCc2ccccc2C1" ?
100 to 1000 nM

Quick one: IC50 for "O=C1c2ccc(CN3CCCCC3)cc2OCCN1C[C@H](O)CN1CCc2ccccc2C1" ?
1 to 100 nM

Quick one: IC50 for CC1CN(C[C@H](O)CN2CCc3ccccc3C2)C(=O)c2ccc(OC3CCN(C)CC3)nc2O1 (stereo partly shown) ?
100 to 1000 nM

Quick one: IC50 for "CC(=O)N1CCC(c2ccc3c(c2)OCCN(C[C@H](O)CN2CCc4ccccc4C2)C3=O)CC1" ?
1 to 100 nM

Quick one: IC50 for "CC1(C)CN(C[C@H](O)CN2CCc3ccccc3C2)C(=O)c2ccc(CN3CCOCC3)cc2O1" ?
100 to 1000 nM

----------
We begin with a simple list: items and their reported IC50.
- TEST SYSTEM: PRMT5-MEP50 enzyme complex (Homo sapiens (Human))
- METHOD: PRMT5 enzyme activity in vitro assay (methylation of histone H4R3, ELISA absorbance at 450 nm)
- TEST PARAMETERS: SAM, histone H4 peptide, room temperature 2 hours, 8 points from 10 μM to 0.128 nM

>>> test_value("CC1(C)CN(C[C@H](O)CN2CCc3ccccc3C2)C(=O)c2ccc(CN3CCCC3)cc2O1")
"100 to 1000 nM"
>>> test_value("CC(=O)N1CCN(Cc2ccc3c(c2)OC(C)(C)CN(C[C@H](O)CN2CCc4ccccc4C2)C3=O)CC1")
"100 to 1000 nM"
>>> test_value("CCN1CCN(C[C@H](O)CN2CCc3ccccc3C2)C(=O)c2ccc(Br)cc21")
"1 to 100 nM"
>>> test_value("O=C(c1ccc2c(c1)OCCN(C[C@H](O)CN1CCc3ccccc3C1)C2=O)N1CCC(F)(F)CC1")
"100 to 1000 nM"
>>> test_value("O=C1c2ccc(CN3CCCC(CO)C3)cc2OCCN1C[C@H](O)CN1CCc2ccccc2C1 (some centres unmarked)")
"1000 to 10000 nM"

Quick one: IC50 for "O=C1c2ccc(CN3CCOCC3)cc2OCCN1C[C@H](O)CN1CCc2ccccc2C1" ?
1 to 100 nM

Quick one: IC50 for "O=C1c2ccc(Oc3ncc(F)cn3)cc2OCCN1C[C@H](O)CN1CCc2ccccc2C1" ?
100 to 1000 nM

Quick one: IC50 for "O=C(c1ccc2c(c1)OCCN(C[C@H](O)CN1CCc3ccccc3C1)C2=O)N1CCCC1" ?
100 to 1000 nM

----------
- TEST SYSTEM: PRMT5-MEP50 enzyme complex (Homo sapiens (Human), UniProt O14744)
- METHOD: PRMT5 enzyme activity in vitro assay (methylation of histone H4R3, ELISA absorbance at 450 nm)
- TEST PARAMETERS: SAM, histone H4 peptide, room temperature 2 hours, 8 points from 10 μM to 0.128 nM
pIC50: −log10 of the molar value. Structures can show the parent of a compound that is named as a salt.
We begin with a simple list: items and their reported pIC50.

>>> test_value("CC(C)N1CC(Oc2ccc3c(c2)OCCN(C[C@H](O)CN2CCc4ccccc4C2)C3=O)C1 [Example 95]")
"6.00 to 7.00"
>>> test_value("O=C1c2ccc(OC(F)(F)F)cc2CCCN1CC(O)CN1CCc2ccccc2C1 (stereo not shown) [Example 4]")
"6.00 to 7.00"
>>> test_value("CN1CCN(C[C@H](O)CN2CCc3ccccc3C2)C(=O)c2ccc(OC3CCNCC3F)cc21 (stereo partly shown) [Example 135, dihydrochloride]")
"6.00 to 7.00"
>>> test_value("O=C1c2ccc(O[C@@H]3CCN(CCO)C[C@H]3F)cc2OCCN1C[C@H](O)CN1CCc2ccccc2C1 [Example 253, dihydrochloride]")
"6.00 to 7.00"
>>> test_value("CN1CCCC(COc2ccc3c(c2)N(C)CCN(C[C@H](O)CN2CCc4ccccc4C2)C3=O)C1 (stereo partly shown) [Example 133]")
"7.00 to 9.00"
>>> test_value("CN1CCC(Oc2ccc3c(c2)OCCN(C[C@H](O)CN2CCc4ccccc4C2)C3=O)C(F)C1 (stereo partly shown) [Example 206]")
"6.00 to 7.00"

Hello, I am looking for reported pIC50 with PRMT5-MEP50 enzyme complex (Homo sapiens (Human), UniProt O14744) for CC1CN(C(=O)c2ccc3c(c2)OCCN(C[C@H](O)CN2CCc4ccccc4C2)C3=O)CCO1 (stereo partly shown) [Example 190] . Could you help?
6.00 to 7.00

Hello, I am looking for reported pIC50 with PRMT5-MEP50 enzyme complex (Homo sapiens (Human), UniProt O14744) for CN1CCC(Oc2cc(F)c3c(c2)OCCN(C[C@H](O)CN2CCc4ccccc4C2)C3=O)CC1 [Example 109] . Could you help?
6.00 to 7.00

Hello, I am looking for reported pIC50 with PRMT5-MEP50 enzyme complex (Homo sapiens (Human), UniProt O14744) for CC(=O)N1CCC(Oc2ccc3c(c2)OCCN(C[C@H](O)CN2CCc4ccccc4C2)C3=O)CC1 [Example 78] . Could you help?
7.00 to 9.00

Hello, I am looking for reported pIC50 with PRMT5-MEP50 enzyme complex (Homo sapiens (Human), UniProt O14744) for CC1(C)CN(C[C@H](O)CN2CCc3ccccc3C2)C(=O)c2ccc(CN3CCCCC3)nc2O1 [Example 197] . Could you help?
6.00 to 7.00

Hello, I am looking for reported pIC50 with PRMT5-MEP50 enzyme complex (Homo sapiens (Human), UniProt O14744) for CC(=O)N1CCN(Cc2ccc3c(c2)OCCN(C[C@H](O)CN2CCc4ccccc4C2)C3=O)CC1 [Example 53] . Could you help?
6.00 to 7.00

Hello, I am looking for reported pIC50 with PRMT5-MEP50 enzyme complex (Homo sapiens (Human), UniProt O14744) for CN1CCCC(Oc2ccc3c(c2)N(C)CCN(C[C@H](O)CN2CCc4ccccc4C2)C3=O)C1 (stereo partly shown) [Example 130] . Could you help?
6.00 to 7.00

Hello, I am looking for reported pIC50 with PRMT5-MEP50 enzyme complex (Homo sapiens (Human), UniProt O14744) for CN(C)Cc1ccc2c(c1)OCCN(C[C@H](O)CN1CCc3ccccc3C1)C2=O [Example 25] . Could you help?
6.00 to 7.00

Hello, I am looking for reported pIC50 with PRMT5-MEP50 enzyme complex (Homo sapiens (Human), UniProt O14744) for Cc1nn(C)cc1-c1ccc2c(c1)OCCN(C[C@H](O)CN1CCc3ccccc3C1)C2=O [Example 231] . Could you help?
7.00 to 9.00

Hello, I am looking for reported pIC50 with PRMT5-MEP50 enzyme complex (Homo sapiens (Human), UniProt O14744) for O=C1c2ccc(C(=O)N3C4CCC3COC4)cc2OCCN1C[C@H](O)CN1CCc2ccccc2C1 [Example 189] . Could you help?
6.00 to 7.00
